# test protocol: Viability qHTS for spleen associated tyrosine kinase inhibitor (SYKi) drug resistant MV4-11 cells (AID 1963824); also: nearly all actives have a fitted effect of over 35% in size
# condition description: SYKi-resistant MV4-11 viability, CellTiter-Glo, 72 h; series mostly up to 45 µM
Results filed as inconclusive are left out. Active and inactive are the calls of the source. Calls follow the shape of the dose curve; as a rule, active = well fitted cell-killing curve with a large enough effect; inconclusive = small, poorly fitted or top-dose-only effect, or effect the other way; inactive = no such curve, though single readings can be large or run the other way.
Labels: active, inactive

compound	class assignment
COc1ccc(-c2cc3nccn3c(Nc3ncccc3C(N)=O)n2)cc1OC	active
CCC(C)C(=O)OC[C@H]1O[C@H](O[C@H]2O[C@H](CO)[C@@H](O)[C@H](O)[C@H]2O)[C@H](O)[C@@H](O)[C@@H]1O (some centres undefined)	inactive
N#CC1C(=O)N=C(c2cc(Cl)ccc2O)C=C1c1cc(OCc2ccccc2)cc(OCc2ccccc2)c1 (centres undefined)	inactive
Cc1c(C(=O)NCCCO)cnn1-c1nc(-c2cccc(C(F)(F)F)c2)cs1	active

###

# test protocol: Viability qHTS for spleen associated tyrosine kinase inhibitor (SYKi) naive MV4-11 cells (AID 1963823); also: nearly all actives have a fitted effect of over 40% in size
# condition description: MV4-11 AML viability, CellTiter-Glo luminescence, 72 h; series mostly up to 45 µM
Records with an inconclusive call do not appear. The source made the active and inactive calls. Calls come from the whole dose curve; as a rule, active = well fitted cell-killing curve with a large enough effect; inconclusive = small, poorly fitted or top-dose-only effect, or effect the other way; inactive = no such curve, though single readings can be large or run the other way.
Outcomes: y = active, n = inactive

molecule	class assignment
C=C(C)C(=O)OC1CC(CO)CCC/C(CO)=C/C2OC(=O)C(=C)C21 (stereo not given)	y
CCn1cc(C(=O)O)c(=O)c2cc(F)c(N3CCN(C)CC3)cc21	n
CNC(=O)c1cc(Oc2ccc3nc(N[C@@H]4CCCC[C@H]4O)sc3c2)ccn1	y
O=C(NCCCCN1CCN(c2cccc(Cl)c2Cl)CC1)c1cc2ccccc2s1	y
CC(=O)OC(CSC1CCC(=O)OC(C)CCC(=O)C1)C(=O)O (stereo not given)	n

###

# test protocol: Quantitative highthroughput screen to assess conditional lethalithy of NOMO1 cells grown in Human Plasma-Like Medium with dialyzed fetal bovine serum (HPLM+ds) (AID 1963878); also: nearly all actives have a fitted effect of over 35% in size;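 as to viability: 100% = DMSO wells and 0% = empty wells on each plate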
# condition description: NOMO1 AML cells in HPLM+ds, CellTiter-Glo viability, 48 h; series mostly up to 45.8 µM
# Protocol: Assay Provider: Jason Cantor Ph.D. Department of Biochemistry University of Wisconsin-Madison, Madison, WI, USA Chemical screening studies have identified drug sensitivities across hundreds of cancer cell lines but most putative therapeutics fail to translate. […] Sets of conditional anticancer compounds spanned phases of clinical development and included non-oncology drugs were assessed. […] 6; Detection; Luminescence, Viewlux PerkinElmer. […]
Results filed as inconclusive are left out. Calls of active or inactive are those of the source. Calls follow the shape of the dose curve; as a rule, active = well fitted cell-killing curve with a large enough effect; inconclusive = small, poorly fitted or top-dose-only effect, or effect the other way; inactive = no such curve, though single readings can be large or run the other way.
Possible outcomes: yes (1) for active, no (0) for inactive

compound	class assignment
CCOC(=O)[C@@]1(CCCCCCOc2ccc(Cl)cc2)CO1	no (0)
COc1cc(C=CC(=O)CC(=O)C=Cc2ccc(O)c(OC)c2)ccc1O	yes (1)
Cn1cc(-c2ccc3nnc(C(F)(F)c4ccc5ncccc5c4)n3n2)cn1	no (0)
O=C1CCCC(=O)C1C(=O)c1ccc(C(F)(F)F)cc1[N+](=O)[O-]	no (0)
COC(=O)[C@]12CCC(C)(C)C[C@@H]1[C@@H]1C(=O)C=C3[C@@]4(C)C=C(C#N)C(=O)C(C)(C)[C@@H]4CC[C@@]3(C)[C@]1(C)CC2	yes (1)
CCCOc1ccc(C(=O)OCCN(CC)CC)cc1N	no (0)
COc1ccc(C2CNC(=O)C2)cc1OC1CCCC1 (stereo unspecified)	no (0)
Nc1ccc(S(N)(=O)=O)cc1	no (0)
COc1cc2c(Nc3ccc(NC(=O)c4ccccc4)cc3)ncnc2cc1OCCCN1CCOCC1	no (0)
Cc1nc(N)sc1-c1ccnc(Nc2ccc(N3CCOCC3)cc2)n1	yes (1)
O=C(Nc1c(Cl)cncc1Cl)c1ccc(OC(F)F)c(OCC2CC2)c1	no (0)

###

# test protocol: Cellular viability qHTS for adrenocortical cancer (ACC) cell line NCI-H295R (AID 1963990); also: nearly all actives have a fitted effect of over 60% in size
# condition description: CellTiter-Glo ATP luminescence, 48 h; series mostly up to 46.1 µM
Records with an inconclusive call do not appear. Activity calls are given as the source filed them. The call rests on the fitted dose curve; in most records, active means well fitted cell-killing curve with a large enough effect; inconclusive means small, poorly fitted or top-dose-only effect; inactive means flat fitted curve, though single readings scatter.
Outcomes: active, inactive

compound	class assignment
CCOc1ccc2ccccc2c1C(=O)N[C@@H]1C(=O)N2[C@@H]1SC(C)(C)[C@@H]2C(=O)O	inactive
COc1cc(C=O)ccc1O	inactive
CNc1nc(Nc2ccc(C(=O)N3CCOCC3)cc2OC)ncc1Cl	inactive
C=CCNC1=C2CC(C)CC(OC)C(O)C(C)/C=C(\C)C(OC(N)=O)C(OC)/C=C/C=C(\C)C(=O)NC(=CC1=O)C2=O (centres undefined)	active
CC1=C(/C=C/C(C)=C/C=C/C(C)=C/C=C/C=C(C)/C=C/C=C(C)/C=C/C2=C(C)CCCC2(C)C)C(C)(C)CCC1	inactive
C[C@@H]1C(=O)OC2[C@H](O)[C@]34[C@H]5C[C@@H](C(C)(C)C)[C@]36[C@@H](OC(=O)[C@@H]6O)O[C@@]4(C(=O)O5)[C@]21O (some centres undefined)	inactive
CN1CC[C@@H](NC(=O)Nc2ccc(C#N)cc2)C[C@@H]1c1nc2ccccc2[nH]1	inactive
CC(C)C(=O)Nc1ccc([N+](=O)[O-])c(C(F)(F)F)c1	inactive
CCN(CC)CC1CCCCN1CC(=O)N1c2ccccc2C(=O)Nc2cccnc21 (centres undefined)	inactive

###

# test protocol: Quantitative highthroughput screen to assess conditional lethalithy of P12 Ichikawa cells grown in RPMI1640 with untreated serum (RPMI+s) (AID 1963881); also: nearly all actives have a fitted effect of over 35% in size;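 as to viability: 100% = DMSO wells and 0% = empty wells without cells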
# condition description: ATP luminescence, 48 h; viability; series mostly up to 45.8 µM
Records with an inconclusive call do not appear. Activity calls are given as the source filed them. The call rests on the fitted dose curve; in most records, active means well fitted cell-killing curve with a large enough effect; inconclusive means small, poorly fitted or top-dose-only effect; inactive means flat fitted curve, though single readings scatter.
Labels: active, inactive

molecule	class assignment
CN1CCN(CCOc2cc(OC3CCOCC3)c3c(Nc4c(Cl)ccc5c4OCO5)ncnc3c2)CC1	active
CC(C)(C)c1cc(C(C)(C)C)c(NC(=O)c2c[nH]c3ccccc3c2=O)cc1O	inactive
O=C(O)c1ccc2cc(-c3ccc(O)c(C45CC6CC(CC(C6)C4)C5)c3)ccc2c1	active
CON=C(C(=O)N[C@@H]1C(=O)N2C(C(=O)O)=C(CSC(=O)c3ccco3)CS[C@H]12)c1csc(N)n1	inactive
C[C@@H](CN1CC(=O)NC(=O)C1)N1CC(=O)NC(=O)C1	active
COc1cccc2cc(-c3nc(C4CCC(C(=O)O)CC4)n4ncnc(N)c34)[nH]c12 (stereo not given)	active
CCOC(=O)C1=C(C)NC(=S)NC1c1cccc(O)c1 (stereo not given)	active
CCC[C@@H]1C[C@@H](C(=O)N[C@@H]([C@H]2O[C@H](SC)[C@H](O)[C@@H](O)[C@H]2O)[C@@H](C)O)N(C)C1	inactive
OC[C@H]1O[C@@H](n2cnc3c2NC=NC[C@@H]3O)C[C@H]1O	inactive
CCOC(=O)c1ccc(C#Cc2ccc3c(c2)C(C)(C)CCS3)nc1	inactive

###

# test protocol: Viability qHTS for spleen associated tyrosine kinase inhibitor (SYKi) drug resistant MV4-11 cells (AID 1963824); also: nearly all actives have a fitted effect of over 35% in size
# condition description: SYKi-resistant MV4-11 viability, CellTiter-Glo, 72 h; series mostly up to 45 µM
Records with an inconclusive call do not appear. Activity calls are given as the source filed them. Calls follow the shape of the dose curve; as a rule, active = well fitted cell-killing curve with a large enough effect; inconclusive = small, poorly fitted or top-dose-only effect, or effect the other way; inactive = no such curve, though single readings can be large or run the other way.
Classes used: class 1 for active, class 0 for inactive

compound	class assignment
Cc1cn2cc(C(=O)N(C)CCO)cc(NC3CCOc4cccc(C)c43)c2n1 (centres undefined)	class 0
O=C(/C=C/n1cnc(-c2cc(C(F)(F)F)cc(C(F)(F)F)c2)n1)NNc1cnccn1	class 1
C[C@]12CCC(=O)C=C1CC[C@@H]1[C@@H]2[C@@H](O)C[C@@]2(C)[C@H]1CC[C@]2(O)C(=O)COC(=O)CCC(=O)O	class 0
COc1cc(C)c(Sc2cnc(NC(=O)c3ccc(CNC(C)C(C)(C)C)cc3)s2)cc1C(=O)N1CCN(C(C)=O)CC1 (centres undefined)	class 1
Cn1ncnc1COc1nn2c(-c3cc(F)ccc3F)nnc2cc1C(C)(C)C	class 0
C[Se]CCC(N)C(=O)O (centres undefined)	class 0
Cc1cc(Nc2nc(-c3ccccc3)nc3ccccc23)n[nH]1	class 1
COc1cc(Br)c(S(=O)(=O)Nc2ccc(Cl)c(O[C@@H]3CCN(C)C3)c2)cc1OC	class 1
CC(C)(O)c1ccccc1CC[C@@H](SCC1(CC(=O)O)CC1)c1cccc(/C=C/c2ccc3ccc(Cl)cc3n2)c1	class 0

###

# test protocol: Viability qHTS for spleen associated tyrosine kinase inhibitor (SYKi) drug resistant MV4-11 cells (AID 1963824); also: nearly all actives have a fitted effect of over 35% in size
# condition description: SYKi-resistant MV4-11 viability, CellTiter-Glo, 72 h; series mostly up to 45 µM
Records with an inconclusive call do not appear. The source made the active and inactive calls. Calls follow the shape of the dose curve; as a rule, active = well fitted cell-killing curve with a large enough effect; inconclusive = small, poorly fitted or top-dose-only effect, or effect the other way; inactive = no such curve, though single readings can be large or run the other way.
Labels: active, inactive

molecule	class assignment
COC(=O)C1=CO[C@@H](O[C@@H]2O[C@H](CO)[C@@H](O)[C@H](O)[C@H]2O)[C@@H]2C(CO)=CC[C@]12O	inactive
CC(=O)O[C@@]1(C)[C@@H]2CC(=C(C)C)C(=O)C[C@@]2(C)CC[C@H]1OC(=O)C1(C)OC1C (stereo partly drawn)	inactive
C/C=C(\C)C(=O)OC1C(C)C2(O)C(C=C(CO)CC3(O)C(=O)C(C)=CC32)C2C(C)(C)C12OC(=O)C(C)C (stereo not drawn)	active
CC(C)C[C@H](NC(=O)CNC(=O)c1cc(Cl)ccc1Cl)B(O)O	active
OC[C@H]1O[C@@H](O[C@@H]2OC=C[C@H]3[C@H](O)[C@@H]4O[C@]4(CO)[C@@H]23)[C@H](O)[C@@H](O)[C@@H]1O	inactive
CC(C)(C)OC(=O)N1CCC(OCc2nc(-c3ccncc3)no2)CC1	inactive
OC(CC1c2ccccc2-c2cncn21)C1CCCCC1 (stereo not drawn)	active
CCN1CCN(c2ccc(Nc3ccc(-c4ccc(C(N)=O)cc4)n4ncnc34)cc2)CC1	active
NC(=O)c1ccc([N+](=O)[O-])cc1Cl	inactive
O=C(Cc1ccccc1)OC[C@H]1O[C@H](O[C@H]2O[C@H](CO)[C@@H](O)[C@H](O)[C@H]2O)[C@H](O)[C@@H](O)[C@@H]1O	inactive
c1ccc(CNCc2ccc(CN3CCCNCCNCCCNCC3)cc2)nc1	inactive
O=C(NCC1CCN(Cc2cccc(Cl)c2)CC1)[C@@H]1CCCN(c2ncnc3c2nc2n3CCCC2)C1	active
CCN(CC)CCCC(C)Nc1ccnc2cc(Cl)ccc12 (stereo not drawn)	active
CNS(=O)(=O)Cc1ccc2[nH]cc(CCN(C)C)c2c1	inactive
NS(=O)(=O)c1ccc(Cl)c(S(N)(=O)=O)c1	inactive
C[C@@H]1O[C@@H](O[C@H]2[C@@H]3C=CO[C@@H](O[C@@H]4O[C@H](CO)[C@@H](O)[C@H](O)[C@H]4O)[C@@H]3[C@@]3(CO)O[C@@H]23)[C@H](OC(=O)/C=C/c2ccc(O)c(O)c2)[C@H](O)[C@H]1O	inactive
CC(C)(C)CC(C)(C)c1ccc(O)c(-n2nc3ccccc3n2)c1	inactive
COc1cc(O)cc(C)c1C(=O)O[C@H]1[C@@H](OC(C)=O)[C@H](n2ccc(=O)[nH]c2=O)O[C@@H]1CO	inactive
